System: A-375
experimentSummary: Cytotoxicity against human A375 cells after 72 hrs by MTS assay
Type: functional, cell-based
assayContext: A-375, 72 h
parameter: log10 IC50 (log10 of the value in µM)
Units before log transform: µM; reported quantity: IC50; transform: log10.

Consider the following illustrative entries.
compound | log10 IC50
C=C(CNCCO)[C@@H]1CC[C@]2(CO)CC[C@]3(C)[C@H](CC[C@@H]4[C@@]5(C)CCC(N)C(C)(C)[C@@H]5CC[C@]43C)[C@@H]12 (some centres undefined) | 0.70
C=C(CO)[C@@H]1CC[C@]2(CO)CC[C@]3(C)[C@H](CC[C@@H]4[C@@]5(C)CC[C@H](NCCOC)C(C)(C)[C@@H]5CC[C@]43C)[C@@H]12 | 1.26
C=C(CNCCO)[C@@H]1CC[C@]2(CO)CC[C@]3(C)[C@H](CC[C@@H]4[C@@]5(C)CCC(NCc6ccc7c(c6)OCO7)C(C)(C)[C@@H]5CC[C@]43C)[C@@H]12 (some centres undefined) | 0.70
C=C(CNCCO)[C@@H]1CC[C@]2(CO)CC[C@]3(C)[C@H](CC[C@@H]4[C@@]5(C)CCC(NCCc6ccc(O)cc6)C(C)(C)[C@@H]5CC[C@]43C)[C@@H]12 (some centres undefined) | 0.30
C=C(C)[C@@H]1CC[C@]2(C(=O)O)CC[C@]3(C)[C@H](CC[C@@H]4[C@@]5(C)CC[C@H](O)C(C)(C)[C@@H]5CC[C@]43C)[C@@H]12 | 1.34

Suppose we examine the compound C=C(CO)[C@@H]1CC[C@]2(CO)CC[C@]3(C)[C@H](CC[C@@H]4[C@@]5(C)CC[C@H](NCCO)C(C)(C)[C@@H]5CC[C@]43C)[C@@H]12 ; what log10 IC50 value has been reported?
1.20

Suppose we examine the compound C=C(CNCCO)[C@@H]1CC[C@]2(CO)CC[C@]3(C)[C@H](CC[C@@H]4[C@@]5(C)CCC(=O)C(C)(C)[C@@H]5CC[C@]43C)[C@@H]12 ; what log10 IC50 value has been reported?
1.00

Suppose we examine the compound C=C(C)[C@@H]1CC[C@]2(CO)CC[C@]3(C)[C@H](CC[C@@H]4[C@@]5(C)CCC(NCCO)C(C)(C)[C@@H]5CC[C@]43C)[C@@H]12 (some centres undefined) ; what log10 IC50 value has been reported?
0.30

* * *

Measured pIC50 values are reported for all entries that follow.
Test system: A-375
experimentSummary: Cytotoxicity against human A375 cells after 72 hrs by MTS assay
Format: functional, cell-based
assayContext: A-375, 72 h
Value format note: pIC50 is -log10 of concentration (mol/L); just state the number.

Consider the following illustrative entries.
molecule | targetOrSystem | parameter | quantitativeResult
C=C(C)[C@@H]1CC[C@]2(CO)CC[C@]3(C)[C@H](CC[C@@H]4[C@@]5(C)CCC(NCCOC)C(C)(C)[C@@H]5CC[C@]43C)[C@@H]12 (stereo partly specified) | A-375 | pIC50 | 5.15
C=C(CO)[C@@H]1CC[C@]2(CO)CC[C@]3(C)[C@H](CC[C@@H]4[C@@]5(C)CC[C@H](N)C(C)(C)[C@@H]5CC[C@]43C)[C@@H]12 | A-375 | pIC50 | 5.22
C=C(C)[C@@H]1CC[C@]2(C(=O)O)CC[C@]3(C)[C@H](CC[C@@H]4[C@@]5(C)CCC(NCCO)C(C)(C)[C@@H]5CC[C@]43C)[C@@H]12 (stereo partly specified) | A-375 | pIC50 | 4.85
C=C(CNCCO)[C@@H]1CC[C@]2(CO)CC[C@]3(C)[C@H](CC[C@@H]4[C@@]5(C)CCC(NCCOC)C(C)(C)[C@@H]5CC[C@]43C)[C@@H]12 (stereo partly specified) | A-375 | pIC50 | 5.40

Suppose we examine the molecule C=C(CO)[C@@H]1CC[C@]2(CO)CC[C@]3(C)[C@H](CC[C@@H]4[C@@]5(C)CC[C@H](NCCc6ccc(O)c(O)c6)C(C)(C)[C@@H]5CC[C@]43C)[C@@H]12 ; what pIC50 value has been reported?
5.22

Suppose we examine the molecule C=C(C)[C@@H]1CC[C@]2(CO)CC[C@]3(C)[C@H](CC[C@@H]4[C@@]5(C)CCC(N)C(C)(C)[C@@H]5CC[C@]43C)[C@@H]12 (stereo partly specified) ; what pIC50 value has been reported?
5.70

Suppose we examine the molecule C=C(CNCCO)[C@@H]1CC[C@]2(CO)CC[C@]3(C)[C@H](CC[C@@H]4[C@@]5(C)CCC(NCCc6ccc(O)c(O)c6)C(C)(C)[C@@H]5CC[C@]43C)[C@@H]12 (stereo partly specified) ; what pIC50 value has been reported?
5.15

Suppose we examine the molecule C=C(C)[C@@H]1CC[C@]2(CO)CC[C@]3(C)[C@H](CC[C@@H]4[C@@]5(C)CCC(NCCc6ccc(O)cc6)C(C)(C)[C@@H]5CC[C@]43C)[C@@H]12 (stereo partly specified) ; what pIC50 value has been reported?
5.40

Suppose we examine the molecule C=C(CNCCc1ccc(O)cc1)[C@@H]1CC[C@]2(CO)CC[C@]3(C)[C@H](CC[C@@H]4[C@@]5(C)CCC(=O)C(C)(C)[C@@H]5CC[C@]43C)[C@@H]12 ; what pIC50 value has been reported?
5.22

* * *

System: OVCAR-3
experimentSummary: Cytotoxicity against human OVCAR-3 cells after 120 hrs by MTS assay
assayContext: OVCAR-3, 120 h
parameter: pIC50
Value format note: pIC50 is -log10 of concentration (mol/L); just state the number.

Consider the following illustrative entries.
compound | targetOrSystem | quantitativeResult
C=C(C)[C@@H]1CC[C@]2(CO)CC[C@]3(C)[C@H](CC[C@@H]4[C@@]5(C)CCC(NCCOC)C(C)(C)[C@@H]5CC[C@]43C)[C@@H]12 (stereo partly drawn) | OVCAR-3 | 4.66
C=C(CNCCO)[C@@H]1CC[C@]2(CO)CC[C@]3(C)[C@H](CC[C@@H]4[C@@]5(C)CCC(NCc6ccc7c(c6)OCO7)C(C)(C)[C@@H]5CC[C@]43C)[C@@H]12 (stereo partly drawn) | OVCAR-3 | 4.19
C=C(CO)[C@@H]1CC[C@]2(CO)CC[C@]3(C)[C@H](CC[C@@H]4[C@@]5(C)CC[C@H](NCCc6ccc(O)cc6)C(C)(C)[C@@H]5CC[C@]43C)[C@@H]12 | OVCAR-3 | 4.64
C=C(C)[C@@H]1CC[C@]2(C(=O)O)CC[C@]3(C)[C@H](CC[C@@H]4[C@@]5(C)CC[C@H](O)C(C)(C)[C@@H]5CC[C@]43C)[C@@H]12 | OVCAR-3 | 4.40
C=C(CO)[C@@H]1CC[C@]2(CO)CC[C@]3(C)[C@H](CC[C@@H]4[C@@]5(C)CC[C@H](NCCOC)C(C)(C)[C@@H]5CC[C@]43C)[C@@H]12 | OVCAR-3 | 4.40
C=C(C)[C@@H]1CC[C@]2(C(=O)O)CC[C@]3(C)[C@H](CC[C@@H]4[C@@]5(C)CCC(N)C(C)(C)[C@@H]5CC[C@]43C)[C@@H]12 (stereo partly drawn) | OVCAR-3 | 4.85

Suppose we examine the compound C=C(CNCCO)[C@@H]1CC[C@]2(CO)CC[C@]3(C)[C@H](CC[C@@H]4[C@@]5(C)CCC(NCCc6ccc(O)cc6)C(C)(C)[C@@H]5CC[C@]43C)[C@@H]12 (stereo partly drawn) ; what pIC50 value has been reported?
4.40

Suppose we examine the compound C=C(C)[C@@H]1CC[C@]2(CO)CC[C@]3(C)[C@H](CC[C@@H]4[C@@]5(C)CCC(NCCc6ccc(O)cc6)C(C)(C)[C@@H]5CC[C@]43C)[C@@H]12 (stereo partly drawn) ; what pIC50 value has been reported?
5.30

* * *

Tested on: OVCAR-3
experimentSummary: Cytotoxicity against human OVCAR-3 cells after 120 hrs by MTS assay
assayContext: OVCAR-3, 120 h
parameter: IC50
Remember to follow the number with its unit.

Please state recorded IC50 (tested on OVCAR-3) of C=C(C)[C@@H]1CC[C@]2(CO)CC[C@]3(C)[C@H](CC[C@@H]4[C@@]5(C)CCC(NCCc6ccc(O)c(O)c6)C(C)(C)[C@@H]5CC[C@]43C)[C@@H]12 (stereo partly drawn)
4 µM

Please state recorded IC50 (tested on OVCAR-3) of C=C(CO)[C@@H]1CC[C@]2(CO)CC[C@]3(C)[C@H](CC[C@@H]4[C@@]5(C)CC[C@H](N)C(C)(C)[C@@H]5CC[C@]43C)[C@@H]12
14 µM

Please state recorded IC50 (tested on OVCAR-3) of C=C(CO)[C@@H]1CC[C@]2(CO)CC[C@]3(C)[C@H](CC[C@@H]4[C@@]5(C)CC[C@H](NCc6ccc7c(c6)OCO7)C(C)(C)[C@@H]5CC[C@]43C)[C@@H]12
20 µM
